Target: IN-GCN2 interaction (6xHis-IN / GST-GCN2) (UniProt P04585+Q9P2K8)
Sequence (Q9P2K8 192-1024, other chains not shown): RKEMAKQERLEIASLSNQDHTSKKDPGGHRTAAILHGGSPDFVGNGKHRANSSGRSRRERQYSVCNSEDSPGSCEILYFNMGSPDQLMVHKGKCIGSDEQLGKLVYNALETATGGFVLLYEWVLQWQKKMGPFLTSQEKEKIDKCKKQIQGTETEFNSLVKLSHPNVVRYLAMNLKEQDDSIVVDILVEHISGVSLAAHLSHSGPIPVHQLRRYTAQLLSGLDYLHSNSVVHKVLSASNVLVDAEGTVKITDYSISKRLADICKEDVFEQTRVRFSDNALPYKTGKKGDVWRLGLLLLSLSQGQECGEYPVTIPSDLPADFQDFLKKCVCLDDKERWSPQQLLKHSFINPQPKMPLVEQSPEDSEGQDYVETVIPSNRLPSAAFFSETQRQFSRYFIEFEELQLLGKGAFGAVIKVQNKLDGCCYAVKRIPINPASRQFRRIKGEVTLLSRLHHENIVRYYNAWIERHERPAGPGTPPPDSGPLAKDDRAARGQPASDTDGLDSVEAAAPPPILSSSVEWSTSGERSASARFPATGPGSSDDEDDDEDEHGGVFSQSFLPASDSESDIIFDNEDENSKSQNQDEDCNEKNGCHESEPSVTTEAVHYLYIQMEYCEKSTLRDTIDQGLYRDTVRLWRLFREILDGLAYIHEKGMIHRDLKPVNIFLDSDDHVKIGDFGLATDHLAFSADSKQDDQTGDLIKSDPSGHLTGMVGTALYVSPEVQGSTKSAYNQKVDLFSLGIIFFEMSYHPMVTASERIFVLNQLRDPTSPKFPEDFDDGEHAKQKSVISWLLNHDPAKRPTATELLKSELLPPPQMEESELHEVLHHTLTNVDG
Test: biochemical
Format: binding, HIV-1 IN; human GCN2
Details: screen, single dose 100 µM, single replicate; residual AlphaLISA signal normalized to DMSO control
Measured IN-GCN2 interaction (%) values are reported for all entries that follow.

Molecule: COc1ccc2c(c1O)-c1c(OC)c(OC)cc3c1[C@H](C2)N(C)CC3
IN-GCN2 interaction (%): 119.47
//
Molecule: O=c1ccn([C@H]2C[C@H](O)[C@@H](CO)O2)c(=O)[nH]1
IN-GCN2 interaction (%): 82.13
//
Molecule: O=C1c2cc(O)c(O)cc2OC(c2ccc(O)c(O)c2)C1O (stereo not shown)
IN-GCN2 interaction (%): 108.22
//
Molecule: CC(C)=CCc1c2c(c3occ(-c4ccc(O)c(O)c4)c(=O)c3c1O)C=CC(C)(C)O2
IN-GCN2 interaction (%): 36.50

----------
Measured IN-GCN2 interaction (%) values are reported for all entries that follow.
Target: IN-GCN2 interaction (6xHis-IN / GST-GCN2) (UniProt P04585+Q9P2K8)
Test: biochemical
Assay type: binding, HIV-1 IN; human GCN2
Conditions: screen, single dose 100 µM, single replicate; residual AlphaLISA signal normalized to DMSO control
Experimental endpoint: IN-GCN2 interaction (%)

Molecule: COc1cc2c(c(OC)c1OC)-c1ccc(OC)c(=O)cc1[C@@H](NC(=O)c1ccccc1)CC2 [NSC33410]
Result: 67.25
--
Molecule: C/C=C/C(=O)O [NSC8751]
Result: 85.97
--
Molecule: CSC1SC[C@H]2C(=O)N(C)[C@@H](C(C)C)C(=O)OC[C@@H](NC(=O)c3cnc4ccccc4n3)C(=O)N[C@@H](C)C(=O)N(C)[C@@H]1C(=O)N(C)[C@@H](C(C)C)C(=O)OC[C@@H](NC(=O)c1cnc3ccccc3n1)C(=O)N[C@@H](C)C(=O)N2C (stereo partly shown) [NSC526417]
Result: 53.14
--
Molecule: CC1(C)CCC[C@]2(C)C3=C(CC[C@@H]12)C(=O)OC3 [NSC375294]
Result: 100.67

----------
Target: IN-GCN2 interaction (6xHis-IN / GST-GCN2) (UniProt P04585+Q9P2K8)
Assay: biochemical
Type: binding, HIV-1 IN; human GCN2
Details: IC50, inhibition of IN-GCN2 interaction, SAR study, fresh dilutions from powder; at least three independent experiments
pIC50: −log10 of the molar value.
Measured pIC50 values are reported for all entries that follow.
Experimental endpoint: pIC50

Compound: CCCCCCCCCCCCCCCCCC(=O)OCC(=O)OCC(=O)C1(O)Cc2c(O)c3c(c(O)c2C(OC2CC(N)C(O)C(C)O2)C1)C(=O)c1c(OC)cccc1C3=O (stereo not shown) [Compound 1m]
Qualifier symbol: =
Result: 4.69
--
Compound: CCN(CC)C1CC(OC2CC(O)(C(=O)CO)Cc3c(O)c4c(c(O)c32)C(=O)c2c(OC)cccc2C4=O)OC(C)C1O (stereo not shown) [Compound 1n]
Qualifier symbol: =
Result: 4.53
--
Compound: COc1cc2c3c(c1O)C1(C=CC(=O)C=C1)CC3N(C)CC2 (stereo not shown) [Compound 3l]
Qualifier symbol: <
Result: 4.00
--
Compound: COc1cc2c3c(cc4ccccc4c3c1O)N(C)CC2 [NSC785168]
Qualifier symbol: =
Result: 4.77
